meta.source: patent US20080293683A1

Recorded IC50 values for a group of compounds are listed next.
target: recombinant human ERβ (Homo sapiens, UniProt Q92731); construct: purchased PanVera Corporation (Madison, Wis.); host or cells: baculovirus-mediated expression system; test: ERβ binding assay: competition of [3H]E2 binding by competing estrogens; settings: read-out: ERβ IC50
Sequence (Q92731 whole entry): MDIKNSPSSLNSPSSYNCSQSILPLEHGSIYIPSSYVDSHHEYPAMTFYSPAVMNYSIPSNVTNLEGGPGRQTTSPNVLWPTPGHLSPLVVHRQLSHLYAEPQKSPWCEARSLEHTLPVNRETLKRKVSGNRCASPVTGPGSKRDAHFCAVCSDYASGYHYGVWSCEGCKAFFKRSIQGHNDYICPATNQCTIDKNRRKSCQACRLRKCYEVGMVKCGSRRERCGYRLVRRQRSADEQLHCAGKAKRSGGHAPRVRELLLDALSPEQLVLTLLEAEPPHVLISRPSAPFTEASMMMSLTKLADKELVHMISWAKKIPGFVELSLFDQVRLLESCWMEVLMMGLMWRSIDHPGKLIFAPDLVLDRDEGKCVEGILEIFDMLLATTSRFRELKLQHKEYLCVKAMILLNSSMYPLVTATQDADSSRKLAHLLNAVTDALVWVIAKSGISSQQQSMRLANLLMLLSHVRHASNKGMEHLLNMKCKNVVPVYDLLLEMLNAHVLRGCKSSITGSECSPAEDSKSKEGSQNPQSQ
The response must be a number in nM with no trailing unit.

Quick one: IC50 for C[C@]12CC[C@@H]3c4ccc(O)c(O)c4CC[C@H]3[C@@H]1CC[C@@H]2O [4-OH-E2, 4-Hydroxyestradiol] ? 15.9

If you can, please state the reported IC50 value of `C#C[C@]1(O)CC[C@H]2[C@@H]3CCc4cc(O)ccc4[C@H]3[C@@H](OC)C[C@@]21C` . 44.7

I'd like to know its IC50. The compound in question is CC12CCCC1C1CCc3cc(O)ccc3C1CC2 (stereo not shown) [17-Desoxy-E2, 17-Desoxyestradiol] 19.9

Next up:
Given the compound C[C@]12CC[C@@H]3c4ccc(O)cc4CC[C@H]3[C@@H]1C[C@H](O)[C@H]2O [16β-OH-E2-17α] , what is its reported IC50? 70.8

====

molecular target: recombinant human ERβ (Homo sapiens, UniProt Q92731); construct: purchased PanVera Corporation (Madison, Wis.); host or cells: baculovirus-mediated expression system; assay: ERβ binding assay: competition of [3H]E2 binding by competing estrogens; conditions: read-out: ERβ IC50
// reported IC50 per item
Please respond with the number in nM and leave the unit unwritten.

Recorded IC50 of Cc1c(O)ccc2c1CC[C@@H]1[C@@H]2CC[C@]2(C)[C@@H](O)CC[C@@H]12 [4-Methyl-E2, 4-Methylestradiol] , please. 25.1

Recorded IC50 for C[C@]12CC[C@@H]3c4ccc(O)cc4[C@@H](O)C[C@H]3[C@@H]1CC[C@@H]2O [6α-OH-E2, 6α-Hydroxyestradiol] , please? 251

For the molecule shown here, CC[C@H](c1ccc(O)cc1)[C@@H](CC)c1ccc(O)cc1 [Hexestrol, reference compound] , give the reported IC50. 18.6

====

The reader will find reported RBAα % (relative binding affinity for ERα, of E2) values listed item by item below.
target: recombinant human ERα (Homo sapiens, UniProt P03372); construct: purchased PanVera Corporation (Madison, Wis.); host or cells: baculovirus-mediated expression system; assay: ERα binding assay: competition of [3H]E2 binding by competing estrogens; details: calculated against E2 = 100
Sequence (P03372 whole entry): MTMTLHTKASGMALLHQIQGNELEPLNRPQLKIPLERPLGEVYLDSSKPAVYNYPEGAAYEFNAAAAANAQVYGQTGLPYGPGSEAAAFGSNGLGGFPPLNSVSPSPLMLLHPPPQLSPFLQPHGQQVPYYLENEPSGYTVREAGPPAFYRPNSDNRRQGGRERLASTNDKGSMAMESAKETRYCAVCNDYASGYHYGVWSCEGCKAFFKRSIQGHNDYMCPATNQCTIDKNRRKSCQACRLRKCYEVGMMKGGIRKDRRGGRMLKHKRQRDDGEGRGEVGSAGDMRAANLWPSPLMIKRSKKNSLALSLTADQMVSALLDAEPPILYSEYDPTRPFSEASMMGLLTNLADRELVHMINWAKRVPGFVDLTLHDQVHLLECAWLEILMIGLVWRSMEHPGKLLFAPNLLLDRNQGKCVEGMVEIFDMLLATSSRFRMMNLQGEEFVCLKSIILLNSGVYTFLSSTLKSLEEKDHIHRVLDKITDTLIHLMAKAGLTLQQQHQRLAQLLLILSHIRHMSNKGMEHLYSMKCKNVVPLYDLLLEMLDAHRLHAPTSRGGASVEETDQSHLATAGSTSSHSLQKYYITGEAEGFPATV
Give just the number in %; leave the unit off.

These recorded examples may help you get a feel for the data.
Reported RBAα % (relative binding affinity for ERα, of E2), compound C/C=C(/C(=C/C)c1ccc(O)cc1)c1ccc(O)cc1 [Dienestrol, reference compound] : ____ 37

Fill in: RBAα % (relative binding affinity for ERα, of E2) of C#C[C@]1(O)CC[C@H]2[C@@H]3CCc4cc(O)ccc4[C@H]3[C@@H](OC)C[C@@]21C [11β-MeO-EE2, 11β-Methoxyethynylestradiol] is ___ 35

Now, please, on to the next compound.
Using the record for CC12CCC3c4ccc(O)c(O)c4CCC3C1CCC2=O (stereo not drawn) [4-OH-E1, 4-Hydroxyestrone] , report its RBAα % (relative binding affinity for ERα, of E2). 2

====

target: recombinant human ERβ (Homo sapiens, UniProt Q92731); construct: purchased PanVera Corporation (Madison, Wis.); host or cells: baculovirus-mediated expression system; experiment: ERβ binding assay: competition of [3H]E2 binding by competing estrogens; conditions: calculated against E2 = 100
Returns one of Fulfilled or Not fulfilled; Fulfilled when RBAβ (%) (relative binding affinity for ERβ, of E2) is >= 10%.

Previously resolved entries follow.
State whether the measured RBAβ (%) (relative binding affinity for ERβ, of E2) reaches 10%, counting equality as reaching it, for `C[C@]12CCc3c(ccc4cc(O)ccc34)[C@@H]1CCC2=O` Not fulfilled

Is it the case that COc1cc2c(cc1O)CC[C@@H]1[C@@H]2CC[C@]2(C)[C@@H](O)CC[C@@H]12 [2-MeO-E2, 2-Methoxyestradiol] has RBAβ (%) (relative binding affinity for ERβ, of E2) reaching or exceeding 10%? Not fulfilled

// inclusive: RBAβ (%) (relative binding affinity for ERβ, of E2) at least 10%? input: C/C=C(/C(=C/C)c1ccc(O)cc1)c1ccc(O)cc1 [Dienestrol, reference compound] Fulfilled

Next:
Is the recorded value of RBAβ (%) (relative binding affinity for ERβ, of E2) equal to or greater than 10% for this compound? `C[C@@]12C=CC[C@H]1[C@@H]1CCc3cc(O)ccc3[C@H]1CC2` Fulfilled

Could you verify whether the entry `C#C[C@]1(O)CC[C@H]2[C@@H]3CCc4cc(O)ccc4[C@H]3[C@@H](OC)C[C@@]21C` shows RBAβ (%) (relative binding affinity for ERβ, of E2) of no less than 10%? Fulfilled

Hi, just wondering whether C[C@]12CC[C@@H]3c4cc(N)c(O)cc4CC[C@H]3[C@@H]1CCC2=O [2-NH2-E1, 2-Aminoestrone] shows RBAβ (%) (relative binding affinity for ERβ, of E2) of 10% or higher. Not fulfilled

Answer whether RBAβ (%) (relative binding affinity for ERβ, of E2) of Cc1cc(O)cc2c1[C@H]1CC[C@]3(C)[C@@H](O)CC[C@H]3[C@@H]1CC2 [1-Methyl-E2, 1-Methylestradiol] is greater than or equal to 10%. Not fulfilled

Evaluate CC12CCC3c4cc(O)c(O)cc4CCC3C1CCC2=O (stereo not drawn) [2-OH-E1, 2-Hydroxyestrone] : RBAβ (%) (relative binding affinity for ERβ, of E2) at minimum 10%? Not fulfilled
